This collection of values is drawn from paper PMC8849394.

Target: A627D EP300 KIX (human, UniProt Q09472 565-652, A627D)
Sequence (Q09472 565-652 A627D): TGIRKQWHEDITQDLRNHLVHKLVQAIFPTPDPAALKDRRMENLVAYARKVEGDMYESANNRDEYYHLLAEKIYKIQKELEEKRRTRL
Test: fluorescence polarisation
Ends that are not written are not given here. * marks the point of attachment. FITC = O=C1OC2(c3ccc(O)cc3Oc3cc(O)ccc32)c2ccc(NC(=S)*)cc21
measured-attribute: pKd
In simple prose, pKd is minus the logarithm base ten of a concentration in moles per litre.

binder	pKd
SDDGNILPSDIMDFVLKNTPSMQAL (also: rhodamine label) [rhodamine-labeled MLL peptide (MLL25)]	4.10

In the following, a different binder is considered.
Request: Supply pKd value. Item: {FITC}-KEKRIKELELLLMSTENELKGQQAL [FITC-labeled MYB peptide (MYB25)]
Response: 4.64
